- System Name: human PCSK9 (Homo sapiens)
- Construct: biotinylated human PCSK9 (31-692)-Avi-His6; His6 (C)
- Sequence (Q8NBP7 31-692): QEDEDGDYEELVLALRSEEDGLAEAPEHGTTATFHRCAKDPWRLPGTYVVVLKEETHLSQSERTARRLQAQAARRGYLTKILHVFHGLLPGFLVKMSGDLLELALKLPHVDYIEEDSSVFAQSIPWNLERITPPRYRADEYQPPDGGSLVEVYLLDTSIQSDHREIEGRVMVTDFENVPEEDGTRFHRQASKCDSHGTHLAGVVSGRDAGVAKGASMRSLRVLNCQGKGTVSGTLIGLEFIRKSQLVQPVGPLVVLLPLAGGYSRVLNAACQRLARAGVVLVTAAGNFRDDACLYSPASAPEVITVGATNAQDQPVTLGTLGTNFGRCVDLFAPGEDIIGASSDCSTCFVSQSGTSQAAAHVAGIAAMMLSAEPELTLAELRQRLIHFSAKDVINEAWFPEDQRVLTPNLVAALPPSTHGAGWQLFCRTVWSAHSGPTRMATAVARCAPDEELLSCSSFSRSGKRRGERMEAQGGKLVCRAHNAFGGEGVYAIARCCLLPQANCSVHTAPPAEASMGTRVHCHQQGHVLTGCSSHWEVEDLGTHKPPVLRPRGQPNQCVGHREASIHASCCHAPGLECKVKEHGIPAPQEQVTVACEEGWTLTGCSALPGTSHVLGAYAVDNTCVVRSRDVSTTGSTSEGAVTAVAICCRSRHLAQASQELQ
- Assay Remarks: Assay 2 - Biophysical human PCSK9 assay (SPR, Biacore)
- Format: binding
- Run Conditions: geometric mean; SPR at 30° C; read-out: Assay 2 (PCSK9 BIAcore DBA CR) GMean Kd
Catalogue of pKd values
pKd (log units): -log10 of the concentration in mol/L.

[
  {
    "Compound": "Cc1ncc(N[C@H]2CC[C@H](Nc3ccc(N4C(=O)CN(C)C4=O)cn3)C2)nc1C [Example 22]",
    "System Name": "human PCSK9 (Homo sapiens)",
    "Endpoint Label": "pKd",
    "Endpoint Result": 7.03
  },
  {
    "Compound": "O=c1ccccn1-c1ccc(N[C@H]2CC[C@H](Nc3cnc4c(F)cccc4n3)C2)nc1 [Example 145]",
    "System Name": "human PCSK9 (Homo sapiens)",
    "Endpoint Label": "pKd",
    "Endpoint Result": 6.20
  },
  {
    "Compound": "Cn1c(=O)n(-c2ccc(N[C@H]3CC[C@H](Nc4cnc(Cl)cn4)C3)nc2)c2ccccc21 [Example 27]",
    "System Name": "human PCSK9 (Homo sapiens)",
    "Endpoint Label": "pKd",
    "Endpoint Result": 8.51
  }
]

Q: Given the compound CN1C(=O)CN(c2ccc(N[C@H]3CC[C@H](Nc4cnc(OC(F)F)cn4)C3)nc2)C1=O [Example 92] , write its reported pKd.
A: 7.28

Q: Given the compound O=C(O)[C@@H]1CCC(=O)N1c1ccc(N[C@H]2CC[C@H](Nc3cnc(OC(F)F)cn3)C2)nc1 [Example 79] , write its reported pKd.
A: 6.37

Q: Given the compound Cc1cnc(N[C@H]2CC[C@H](Nc3ccc(-n4cccc(Cl)c4=O)cn3)C2)cn1 [Example 47] , write its reported pKd.
A: 8.72

Q: Given the compound O=c1ccccn1-c1ccc(N[C@H]2CC[C@H](Nc3cnc4cccnc4n3)C2)nc1 [Example 143] , write its reported pKd.
A: 5.81

Q: Given the compound O=c1ccccn1-c1ccc(N[C@H]2CC[C@H](Nc3cnc(Cl)cn3)C2)nc1 [Example 3] , write its reported pKd.
A: 7.41

====

Catalogue of pEC50 values
- System Name: PCSK9 (Homo sapiens, UniProt Q8NBP7, G670E/V474I)
- Sequence (Q8NBP7 with tags, fused parts or gaps V474I/G670E): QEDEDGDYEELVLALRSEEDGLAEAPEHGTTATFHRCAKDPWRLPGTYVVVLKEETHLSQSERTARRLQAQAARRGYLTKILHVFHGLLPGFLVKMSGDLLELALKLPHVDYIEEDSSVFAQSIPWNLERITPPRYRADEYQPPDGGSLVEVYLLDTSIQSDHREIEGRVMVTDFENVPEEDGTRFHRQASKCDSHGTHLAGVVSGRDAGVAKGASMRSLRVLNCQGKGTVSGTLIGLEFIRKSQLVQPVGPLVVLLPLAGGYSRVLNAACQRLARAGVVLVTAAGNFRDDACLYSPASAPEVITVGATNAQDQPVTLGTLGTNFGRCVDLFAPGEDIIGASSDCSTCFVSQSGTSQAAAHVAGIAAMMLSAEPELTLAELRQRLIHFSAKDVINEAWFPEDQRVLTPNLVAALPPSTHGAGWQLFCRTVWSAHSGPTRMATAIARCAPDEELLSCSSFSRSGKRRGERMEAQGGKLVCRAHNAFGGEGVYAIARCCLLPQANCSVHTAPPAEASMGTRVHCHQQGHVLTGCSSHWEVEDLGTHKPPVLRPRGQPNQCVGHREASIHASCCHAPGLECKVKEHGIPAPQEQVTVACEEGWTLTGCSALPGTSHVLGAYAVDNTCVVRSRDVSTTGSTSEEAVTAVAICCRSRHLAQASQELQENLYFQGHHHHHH
- Assay Remarks: Assay 3 - PCSK9 LDL-C uptake assay in HepG2 cells
- Run Conditions: 125 nM PCSK9, pHrodo Red-LDL, read-out: Assay 3 LDL uptake potency
pEC50 (log units): -log10 of the concentration in mol/L.

[
  {
    "Compound": "O=c1ccc(-c2nnn[nH]2)cn1-c1ccc(N[C@H]2CC[C@H](Nc3cnc(Cl)cn3)C2)nc1",
    "pEC50": 7.00
  },
  {
    "Compound": "O=c1c(Cl)cccn1-c1ccc(N[C@H]2CC[C@H](Nc3cnc(C4CC4)cn3)C2)nc1",
    "pEC50": 6.40
  }
]

Q: Given the compound `Cc1cnc(N[C@H]2CC[C@H](Nc3ccc(-n4cc(-c5cn[nH]c5)ccc4=O)cn3)C2)cn1` , write its reported pEC50.
A: 6.40

Q: Given the compound `Cn1c(=O)n(-c2ccc(N[C@H]3CC[C@H](Nc4cnc(Cl)cn4)C3)nc2)c2ccccc21` , write its reported pEC50.
A: 7.00

Q: Given the compound `Cc1cnc(N[C@H]2CC[C@H](Nc3ccc(-n4cc(-c5c[nH]nn5)ccc4=O)cn3)C2)cn1` , write its reported pEC50.
A: 6.70

Q: Given the compound `COc1cccn(-c2ccc(N[C@H]3CC[C@H](Nc4cnc(OC(F)F)cn4)C3)nc2)c1=O` , write its reported pEC50.
A: 6.52

Q: Given the compound `Cc1cnc(N[C@H]2CC[C@H](Nc3ccc(-n4cccc(-c5cn[nH]c5)c4=O)cn3)C2)cn1` , write its reported pEC50.
A: 6.40

Q: Given the compound COc1cccn(-c2ccc(N[C@H]3CC[C@H](Nc4cnc(C)cn4)C3)nc2)c1=O [Example 36] , write its reported pEC50.
A: 7.00

Q: Given the compound `Cc1cnc(N[C@H]2CC[C@H](Nc3ccc(-n4c(=O)ccc5ccccc54)cn3)C2)cn1` , write its reported pEC50.
A: 7.00

====

Catalogue of IC50 values
- System Name: GSK3β (Glycogen synthase kinase-3 beta) (Homo sapiens, UniProt P49841)
- Sequence (P49841 whole entry): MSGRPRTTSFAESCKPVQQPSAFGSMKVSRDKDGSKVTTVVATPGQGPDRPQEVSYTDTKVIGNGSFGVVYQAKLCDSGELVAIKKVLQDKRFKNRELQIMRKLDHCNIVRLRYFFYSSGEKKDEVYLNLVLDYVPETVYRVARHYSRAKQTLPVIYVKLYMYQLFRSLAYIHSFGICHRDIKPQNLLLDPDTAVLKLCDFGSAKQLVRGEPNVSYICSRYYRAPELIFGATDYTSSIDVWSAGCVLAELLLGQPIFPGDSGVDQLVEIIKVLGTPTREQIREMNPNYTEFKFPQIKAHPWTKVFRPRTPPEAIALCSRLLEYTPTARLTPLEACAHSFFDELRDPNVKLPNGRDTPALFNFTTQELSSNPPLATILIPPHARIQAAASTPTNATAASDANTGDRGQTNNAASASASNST
- Assay Remarks: Assay 6 - GSK3β assay (ThermoFisher Z-Lyte)
- Format: biochemical
- Run Conditions: geometric mean; ATP Conc: 10 μM; read-out: Assay 6 (GSK3β FRET-Z-Lyte CR) GMean IC50 (μM) ATP Conc: 10

// solved cases for IC50 follow
[
  {
    "Molecule": "O=C1CC[C@H](CO)N1c1ccc(N[C@H]2CC[C@H](Nc3cnc(OC(F)F)cn3)C2)nc1 [Example 77]",
    "Endpoint Label": "IC50",
    "Endpoint Result": "> 10 µM"
  },
  {
    "Molecule": "Cc1cnc(N[C@H]2CC[C@H](Nc3ccc(-n4nccc(C)c4=O)cn3)C2)cn1 [Example 227]",
    "Endpoint Label": "IC50",
    "Endpoint Result": "> 10 µM"
  },
  {
    "Molecule": "Cc1cnc(N[C@H]2CC[C@H](Nc3ccc(-n4ccccc4=O)cn3)C2)cn1 [Example 4]",
    "Endpoint Label": "IC50",
    "Endpoint Result": "> 10 µM"
  }
]

Consider now this further molecule.
Q: Given the molecule Cn1c(=O)n(-c2ccc(N[C@H]3CC[C@H](Nc4cnc(OC(F)F)cn4)C3)nc2)c2ncccc21 [Example 96] , write its reported IC50.
A: > 10 µM

====

Catalogue of IC50 values
- System Name: UniProtKB Q12809
- Sequence (Q12809 whole entry): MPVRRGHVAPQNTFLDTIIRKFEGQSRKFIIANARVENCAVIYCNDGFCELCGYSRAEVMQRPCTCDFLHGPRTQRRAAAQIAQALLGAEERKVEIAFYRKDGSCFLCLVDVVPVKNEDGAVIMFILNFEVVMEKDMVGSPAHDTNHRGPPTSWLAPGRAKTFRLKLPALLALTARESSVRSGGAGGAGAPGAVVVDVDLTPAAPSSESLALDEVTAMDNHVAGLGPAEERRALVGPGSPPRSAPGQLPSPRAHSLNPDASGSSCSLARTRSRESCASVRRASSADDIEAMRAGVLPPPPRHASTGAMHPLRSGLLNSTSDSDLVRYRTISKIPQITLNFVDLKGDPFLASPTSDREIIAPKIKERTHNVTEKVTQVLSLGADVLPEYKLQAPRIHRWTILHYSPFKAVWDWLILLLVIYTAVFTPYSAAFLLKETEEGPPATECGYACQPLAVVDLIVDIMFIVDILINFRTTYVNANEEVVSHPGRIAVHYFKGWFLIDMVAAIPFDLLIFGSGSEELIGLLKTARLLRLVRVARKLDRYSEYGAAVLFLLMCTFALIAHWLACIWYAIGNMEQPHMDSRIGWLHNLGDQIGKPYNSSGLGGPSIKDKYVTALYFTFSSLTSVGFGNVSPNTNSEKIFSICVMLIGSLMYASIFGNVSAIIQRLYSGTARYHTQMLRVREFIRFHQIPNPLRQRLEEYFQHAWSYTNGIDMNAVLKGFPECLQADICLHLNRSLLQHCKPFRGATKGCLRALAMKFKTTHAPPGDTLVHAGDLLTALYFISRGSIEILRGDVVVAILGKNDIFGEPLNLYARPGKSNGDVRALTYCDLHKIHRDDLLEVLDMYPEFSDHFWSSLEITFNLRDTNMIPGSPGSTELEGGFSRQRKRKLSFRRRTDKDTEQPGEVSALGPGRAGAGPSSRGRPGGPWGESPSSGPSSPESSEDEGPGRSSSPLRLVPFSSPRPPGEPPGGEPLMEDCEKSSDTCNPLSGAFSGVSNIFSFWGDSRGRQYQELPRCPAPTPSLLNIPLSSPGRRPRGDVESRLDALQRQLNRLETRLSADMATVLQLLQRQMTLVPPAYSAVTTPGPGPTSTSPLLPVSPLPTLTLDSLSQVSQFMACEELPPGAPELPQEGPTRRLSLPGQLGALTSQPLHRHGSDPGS
- Assay Remarks: Assay 5 - hERG assay (SyncroPatch 384PE patch clamp, CHO cells)
- Run Conditions: geometric mean; CHO cells over-expressing hERG; read-out: Assay 5 (hERG Hu CHO IF EPh CR-Syncro) GMean IC50
The answer is to be given in µM; state only the numeric part.

[
  {
    "Compound": "COc1ccc(=O)n(-c2ccc(N[C@H]3CC[C@H](Nc4cnc(Cl)cn4)C3)nc2)c1 [Example 28]",
    "IC50 [µM]": 25
  },
  {
    "Compound": "O=c1ccc(Cl)cn1-c1ccc(N[C@H]2CC[C@H](Nc3cnc(OC(F)F)cn3)C2)nc1 [Example 83]",
    "IC50 [µM]": 5
  },
  {
    "Compound": "O=c1ccccn1-c1ccc(N[C@H]2CC[C@H](Nc3cnc(OC(F)(F)F)cn3)C2)nc1 [Example 111]",
    "IC50 [µM]": 20.8
  },
  {
    "Compound": "O=c1ccccn1-c1ccc(N[C@H]2CC[C@H](Nc3cnc4c(F)cccc4n3)C2)nc1 [Example 145]",
    "IC50 [µM]": 18.5
  },
  {
    "Compound": "Cc1cnc(N[C@H]2CC[C@H](Nc3ccc(-n4c(=O)n(C)c5cc(C#N)ccc54)cn3)C2)cn1 [Example 216]",
    "IC50 [µM]": 7.3
  },
  {
    "Compound": "Cc1cnc(N[C@H]2CC[C@H](Nc3ccc(-n4c(=O)n(C)c5ccccc54)cn3)C2)cn1 [Example 45]",
    "IC50 [µM]": 23.1
  },
  {
    "Compound": "Cn1c(=O)n(-c2ccc(N[C@H]3CC[C@H](Nc4cnc(Cl)cn4)C3)nc2)c2ncccc21 [Example 98]",
    "IC50 [µM]": 10.8
  },
  {
    "Compound": "O=c1[nH]c2ccccc2n1-c1ccc(N[C@H]2CC[C@H](Nc3cnc(Cl)cn3)C2)nc1 [Example 31]",
    "IC50 [µM]": 8.2
  },
  {
    "Compound": "Cc1ncc(N[C@H]2CC[C@H](Nc3ccc(-n4cccc(Cl)c4=O)cn3)C2)nc1C [Example 19]",
    "IC50 [µM]": 24.6
  }
]

Q: Given the compound Cc1ncc(N[C@H]2CC[C@H](Nc3ccc(-n4cccc(C#N)c4=O)cn3)C2)nc1C [Example 23] , write its reported IC50.
A: 35.9

====

- System Name: PCSK9 (Homo sapiens, UniProt Q8NBP7, G670E/V474I)
- Assay Remarks: Assay 3 - PCSK9 LDL-C uptake assay in HepG2 cells
- Run Conditions: 125 nM PCSK9, pHrodo Red-LDL, read-out: Assay 3 LDL uptake potency
Endpoint Label: pEC50
pEC50 (log units): -log10 of the concentration in mol/L.

Q: Given the molecule Cc1ncc(N[C@H]2CC[C@H](Nc3ccc(-n4c(=O)n(C)c5ccccc54)cn3)C2)nc1C [Example 11] , write its reported pEC50.
A: 6.52

Q: Given the molecule Cc1cnc(N[C@H]2CC[C@H](Nc3ccc(-n4c(=O)n(C)c5cc(C#N)cnc54)cn3)C2)cn1 [Example 218] , write its reported pEC50.
A: 6.52

Q: Given the molecule O=c1ccc2cccnc2n1-c1ccc(N[C@H]2CC[C@H](Nc3cnc(Cl)cn3)C2)nc1 [Example 34] , write its reported pEC50.
A: 7.00

Q: Given the molecule Cc1ncc(N[C@H]2CC[C@H](Nc3ccc(-n4c(=O)n(C)c5cccnc54)cn3)C2)nc1C [Example 21] , write its reported pEC50.
A: 7.00
